system: Hs-578T; assay: NCI tumour cell line growth inhibition, 48 h
Active and inactive are the calls of the source. Rule as the data show it: active = GI50 up to about 1.1 µM and inactive = higher. Square brackets hold non-standard residues; d marks the D form. Peptide text beside a SMILES is read from it. * marks the point of attachment. Phe(4-NO2) = N[CH](Cc1ccc([N+](=O)[O-])cc1)C(=O)O; Cbz = O=C(OCc1ccccc1)*

molecule: O=C1C(Br)=C(c2ccccc2)O/C1=C/C(=O)c1ccc(Br)cc1
system.name: Hs-578T
GI50: 50 µM (inactive)
//
molecule: CCOC(=O)CCC(NC(=O)OCc1ccccc1)C(=O)NC(CCC(=O)OCC)C(=O)NC(CCC(=O)OCC)C(=O)NC(CCC(=O)OCC)C(=O)NC(CCC(=O)OCC)C(=O)NC(Cc1ccc([N+](=O)[O-])cc1)C(=O)NC(CCC(=O)OCC)C(=O)NC(CCC(=O)OCC)C(=O)NC(CCC(=O)OCC)C(=O)NC(CCC(=O)OCC)C(=O)NC(CCC(=O)OCC)C(=O)OCC (configuration not stated) (Cbz-E(OEt)E(OEt)E(OEt)E(OEt)E(OEt)[Phe(4-NO2)]E(OEt)E(OEt)E(OEt)E(OEt)E(OEt)-OEt; configuration not given here)
system.name: Hs-578T
GI50: > 50 µM (inactive)
//
molecule: O=C(Oc1ccc2c(c1)CN(Cc1ccccc1)CO2)c1ccccc1
system.name: Hs-578T
GI50: 23.7 µM (inactive)
//
molecule: O=C(O)COc1cccc2ccccc(=O)c12
system.name: Hs-578T
GI50: > 100 µM (inactive)
//
molecule: Fc1cccc(Cl)c1/C=N\N=C1c2ccccc2-c2ccccc21
system.name: Hs-578T
GI50: 34.3 µM (inactive)
//
molecule: NS(=O)(=O)c1ccc2c(c1)OCCOCCOCCOCCO2
system.name: Hs-578T
GI50: > 100 µM (inactive)
//
molecule: CCN(CC)CC1CCCCN1CC(=O)N1c2ccccc2NC(=O)CC1C (configuration not stated)
system.name: Hs-578T
GI50: > 100 µM (inactive)
//
molecule: CCOC(=O)CCC1(C(=O)O[C@@H]2C[C@H](C)CC[C@H]2C(C)C)CCCCC1=O (some centres not stated)
system.name: Hs-578T
GI50: > 100 µM (inactive)
//
molecule: COc1ccc(C(C#N)NC23CC4CC(CC(C4)C2)C3)cc1 (configuration not stated)
system.name: Hs-578T
GI50: > 100 µM (inactive)
//
molecule: OCCCCCCCCCCCOc1ccc(C2OCC3(CO2)COC(c2ccc(OCCCCCCCCCCCO)cc2)OC3)cc1 (configuration not stated)
system.name: Hs-578T
GI50: > 50 µM (inactive)
//
molecule: CC1OC(O)C(O)C(O)C1O (configuration not stated)
system.name: Hs-578T
GI50: > 100 µM (inactive)
//
molecule: CCCCCCCCCCCCCCCC[N+](C)(C)CCl
system.name: Hs-578T
GI50: 1.85 µM (inactive)
//
molecule: Oc1c(C2=NNC(c3cccs3)C2)ccc2ccccc12 (configuration not stated)
system.name: Hs-578T
GI50: 17.1 µM (inactive)
//
molecule: CC(=O)O[C@H]1C[C@H]2[C@@H]([C@H](OC(C)=O)C[C@@H]3CC4(CC[C@@]32C)OOC2(CCCCC2)OO4)[C@@H]2CC[C@H]([C@H](C)CCC(=O)O)[C@@]12C
system.name: Hs-578T
GI50: 2.42 µM (inactive)
//
molecule: Cc1ccc(-n2nncc2[Si](C)(C)C)s1
system.name: Hs-578T
GI50: > 100 µM (inactive)
//
molecule: CCC(C)N1CN(c2ccccc2)C2(CCN(CCCC3(c4ccc(F)cc4)OCCO3)CC2)C1=O (configuration not stated)
system.name: Hs-578T
GI50: 6.15 µM (inactive)
//
molecule: N#CCCN(CCN(CCN(C(=O)Nc1ccccc1)c1ccccc1)C(=O)Nc1ccccc1)C(=O)Nc1ccccc1
system.name: Hs-578T
GI50: 26 µM (inactive)
